Assay: Lipophilicity, log D of the compound
Conditions: octanol/water
Could you please classify the records by logD using these ranges: low band: < -0.08; middle band: ≥ -0.08 and < 1; high band: ≥ 1

The following compounds have reported results that may help.
• CNCC[C@@H](Oc1ccccc1C)c1ccccc1 = middle band
• CC(C(=O)O)c1cccc(C(=O)c2ccccc2)c1 (centres undefined) = middle band
• Nc1nc2[nH]cc(CCc3ccc(C(=O)N[C@@H](CCC(=O)O)C(=O)O)cc3)c2c(=O)[nH]1 = low band
• Cc1ccc(O)c([C@H](CCN(C(C)C)C(C)C)c2ccccc2)c1 = high band
• COc1ccc2c(c1)c(CC(=O)O)c(C)n2C(=O)c1ccc(Cl)cc1 = high band

Exercise: Which logD category applies to O=C(O)CSc1nnc(Br)n1-c1ccc(C2CC2)c2ccccc12 here?
Solution: middle band

Exercise: Which logD category applies to CNS(=O)(=O)Cc1ccc2[nH]cc(CCN(C)C)c2c1 here?
Solution: low band

Exercise: Which logD category applies to CN(C)C(=O)CCSC(SCCC(=O)O)c1cccc(/C=C/c2ccc3ccc(Cl)cc3n2)c1 (centres undefined) here?
Solution: high band

---

Experiment: Dissociation constant, pKa of the compound
Assay type: physicochemical
property measured: pKa
Numbers only.

Record excerpt, results attached:
- CC(C)(C)NCC(O)COc1cccc2c1CC(O)C(O)C2 (centres undefined) [NADOLOL]: 9.3
- COc1cccc(OC)c1C(=O)N[C@@H]1C(=O)N2[C@@H]1SC(C)(C)[C@@H]2C(=O)O [METHICILLIN]: 2.8
- CNS(=O)(=O)Cc1ccc2[nH]cc(CCN(C)C)c2c1: 8.7

Hello, I would appreciate it if you could give pKa for each entry below.
1. Cc1ccc(O)c([C@H](CCN(C(C)C)C(C)C)c2ccccc2)c1 [TOLTERODINE]
2. CCCc1nc2c(C)cc(-c3nc4ccccc4n3C)cc2n1Cc1ccc(-c2ccccc2C(=O)O)cc1
3. CN(C)C(=O)CCSC(SCCC(=O)O)c1cccc(/C=C/c2ccc3ccc(Cl)cc3n2)c1 (centres undefined) [MK-571]
4. Nc1nc2[nH]cc(CCc3ccc(C(=O)N[C@@H](CCC(=O)O)C(=O)O)cc3)c2c(=O)[nH]1 [PEMETREXED]
5. CN(C)CCCN1c2ccccc2CCc2ccccc21 [IMIPRAMINE]
6. CCN(CC)C(=O)/C(C#N)=C/c1cc(O)c(O)c([N+](=O)[O-])c1 [ENTACAPONE]

Solution:
9.2
3.6
4.6
3.5
9
4.2

---

Test: Lipophilicity, log D of the compound
Settings: octanol/water
Threshold rule: logD greater than or equal to 0.4 is true; below that, false.

The following molecules have reported results that may help.
- N[C@@H]1[C@H]2CN(c3nc4c(cc3F)c(=O)c(C(=O)O)cn4-c3ccc(F)cc3F)C[C@@H]12: true
- C[C@H]1CN(C[C@H](Cc2ccccc2)C(=O)NCC(=O)O)CC[C@@]1(C)c1cccc(O)c1: true
- COc1cccc(OC)c1C(=O)N[C@@H]1C(=O)N2[C@@H]1SC(C)(C)[C@@H]2C(=O)O: false

Exercise: Record COc1ccc(Cl)cc1C(=O)NCCc1ccc(S(=O)(=O)NC(=O)NC2CCCCC2)cc1 [GLYBURIDE] ; criterion: logD no lower than 0.4. Met?
Solution: true

Exercise: Record CCN(CC)C(=O)/C(C#N)=C/c1cc(O)c(O)c([N+](=O)[O-])c1 ; criterion: logD no lower than 0.4. Met?
Solution: false

Exercise: Record CCCCc1nc(C)c(CC(=S)N(C)C)c(=O)n1Cc1ccc(-c2ccccc2-c2nnn[nH]2)cc1 ; criterion: logD no lower than 0.4. Met?
Solution: true

Exercise: Record CCCc1nc2c(C)cc(-c3nc4ccccc4n3C)cc2n1Cc1ccc(-c2ccccc2C(=O)O)cc1 ; criterion: logD no lower than 0.4. Met?
Solution: true

Exercise: Record Cc1noc(NS(=O)(=O)c2ccc(N)cc2)c1C ; criterion: logD no lower than 0.4. Met?
Solution: false
